src = PubChem BioAssay (NCI)

System: SR leukemia
Experiment: NCI-60 one-dose screen, 48 h (100 = growth as untreated, 0 = no growth, -100 = all killed)
Settings: 10 µM unless noted
About 83,000 compounds went through this panel and 20% of them were active in at least one assay; those are over-represented in the sample as a whole.
The threshold is inclusive: growth of exactly -20% counts as Condition met; values below receive Condition not met.

Record excerpt, results attached:
[[record]]
molecule = "CN1C2CCC1CN(c1cnc(C(=O)Nc3cc(F)cc4cccnc34)cn1)C2"
experimental_system = "SR leukemia"
category = "Condition met"

[[record]]
molecule = "CC(C)(C)CC(C)(C)Nc1c(-c2ccc(C(F)(F)F)cc2)nc2cnccn12"
experimental_system = "SR leukemia"
category = "Condition met"

[[record]]
molecule = "COc1c(Cl)cc(Cl)c2ccc(C=C3C(=O)N(C)C(=O)N(C)C3=O)nc12"
experimental_system = "SR leukemia"
category = "Condition met"


Kindly determine if growth recorded for "O=C(O)CNC(=O)CN1C(=O)c2ccccc2C1=O" is above or exactly -20%. Condition met

Kindly determine if growth recorded for "COc1ccc(C(=O)c2cc3c(N)c(C(=O)Nc4cccc(Cl)c4)sc3nc2C)cc1" is above or exactly -20%. Condition met

Kindly determine if growth recorded for "Cc1ccc(/C=C/C(=O)c2ccc(N)cc2)c(C)c1" is above or exactly -20%. Condition not met

Kindly determine if growth recorded for CCCCCCC/C=C/[C@H]1O[C@]2(O)C(=O)C=C3C[C@@H](O[C@@H]4O[C@H](CO)[C@@H](O)C(O)[C@@H]4O)C[C@@H]3[C@H]2C=C1C (some centres undefined) is above or exactly -20%. Condition not met

Kindly determine if growth recorded for "COc1cc(/C=C/C(=O)c2c(C)oc3nc[nH]c(=O)c23)ccc1O" is above or exactly -20%. Condition met

###

Test system: SF-268 CNS
Assay: NCI-60 one-dose screen, 48 h (100 = growth as untreated, 0 = no growth, -100 = all killed)
Conditions: 10 µM unless noted
Method: Cells are grown in 96 well plates and exposed to the test compound for 48 hours. Compounds are tested at a single concentration, which is 10^-5 M for most compounds. The reported endpoint is percent growth (GI% or GIPRCNT), where numbers from 0 - 100% represent growth inhibition, and numbers from -100% - 0 represent cell death. For example, a value of 40 represents 60% growth inhibition. A value of 0 means no net growth occurred over the course of the experiment. […]
About 83,000 compounds went through this panel and 20% of them were active in at least one assay; those are over-represented in the sample as a whole.
The threshold is inclusive: growth of exactly 80% counts as t; values below receive f.

Record excerpt, results attached:
[[record]]
compound = "O=C(Nc1ccc2ncnc(Nc3ccc(Oc4cccc(F)c4)c(Cl)c3)c2c1)c1ccc(CN2CCOCC2)cc1"
category = "f"

[[record]]
compound = "CC1(C)CC[C@]2(C(=O)NCC#CCN3CCOCC3)CC[C@]3(C)C(=CC[C@@H]4[C@@]5(C)Cc6c([nH]c7ccccc67)C(C)(C)[C@@H]5CC[C@]43C)[C@@H]2C1"
category = "t"

[[record]]
compound = "Clc1cc(Cl)cc(N2N=C(c3cccc(Nc4ccncc4)c3)CC2c2ccc(Br)cc2)c1 (centres undefined)"
category = "f"


Kindly determine if growth recorded for "COc1ccc(-c2cnnc3c(-c4cccc(C(F)(F)F)c4)cnn23)cc1" is above or exactly 80%. f

Kindly determine if growth recorded for "Cc1nccc2c3ccc(OCc4cn(-c5ccc(Cl)cc5)nn4)cc3n(CCCc3ccccc3)c12" is above or exactly 80%. f

Kindly determine if growth recorded for "CC(C)(C)OC(=O)N1CCN(c2ccc(N)cc2)C(=O)C1" is above or exactly 80%. t

Kindly determine if growth recorded for "O=C1Nc2c(ccc(Cl)c2Cl)/C1=C/c1ccccn1" is above or exactly 80%. t

Kindly determine if growth recorded for "COc1ccc(-n2cc(-c3cc(OC)c(OC)c(OC)c3)n(C(C)=O)c2=O)cc1" is above or exactly 80%. t

Kindly determine if growth recorded for "CC(C)CCSc1nc(NNC(N)=O)c(C#N)c(-c2ccccc2)n1" is above or exactly 80%. t

###

Tested on: M14 melanoma
Assay: NCI-60 one-dose screen, 48 h (100 = growth as untreated, 0 = no growth, -100 = all killed)
Details: 10 µM unless noted
This is part of a sample that, as a whole, favours compounds with a hit. Of some 83,000 tested, about 20% had one in any assay.
growth for assorted compounds
Number in %, nothing else.

Before answering, review these 5 worked examples.
[[record]]
compound = "Clc1cc(Cl)cc(N2N=C(c3cccc(Nc4ccncc4)c3)CC2c2ccc(Br)cc2)c1 (stereo not given)"
measurement_type = "growth"
reported_measurement = 108

[[record]]
compound = "COc1cc(/C=C2\\C(=O)N(Cc3ccc(Cl)cc3)c3ccccc32)cc(OC)c1OC"
measurement_type = "growth"
reported_measurement = 37.7

[[record]]
compound = "O=C1NC(=S)NC(=O)C1=Cc1cn(Cc2ccccn2)c2ccccc12"
measurement_type = "growth"
reported_measurement = -61.2

[[record]]
compound = "C#CC(=O)Nc1cccc2c1cc(C)n2-c1nc2c(c(NCc3ccccc3)n1)CCCC2"
measurement_type = "growth"
reported_measurement = -65.3

[[record]]
compound = "COc1ccc(/C=C(/c2ccccc2)[N+](=O)[O-])cc1"
measurement_type = "growth"
reported_measurement = 42.8


# compound CC(O)/C=C/C=C/C(O)CC/C=C/C(=O)NCC(C)(C)O (stereo not given) ; its growth = 101

# compound "COc1c(Cl)cc(Cl)c2ccc(C=C3C(=O)NC(=S)NC3=O)nc12" ; its growth = -56.2

# compound CCN1C(=O)/C(=c2\sc3n(c2=O)NC2C(N=3)N(CC)C(=O)N2CC)c2ccccc21 (stereo not given) ; its growth = 38

# compound "CCc1nc(C)cn1C(=O)OCc1nc2nc(Cl)nc(N3CCOCC3)c2[nH]1" ; its growth = -56.8

# compound "C[C@H]1[C@H](C)CC[C@]2(CO)CC[C@]3(C)C(=CC[C@@H]4[C@@]5(C)Cc6c([nH]c7ccccc67)C(C)(C)[C@@H]5CC[C@]43C)[C@H]12" ; its growth = 92.8

###

System: HS 578T breast
Test: NCI-60 one-dose screen, 48 h (100 = growth as untreated, 0 = no growth, -100 = all killed)
Conditions: 10 µM unless noted
This is part of a sample that, as a whole, favours compounds with a hit. Of some 83,000 tested, about 20% had one in any assay.
MEASUREMENT TYPE: growth (%)
Number in %, nothing else.

[[record]]
compound = "CN1CCN(Cc2ccc(NC(=O)c3cncc(C#Cc4cnccc4C(F)(F)F)c3)cc2C(F)(F)F)CC1"
measurement_type = "growth"
reported_measurement = 53

[[record]]
compound = "O=C(Nc1ccc2cc3ccc(NC(=O)NC4CCCCC4)cc3nc2c1)NC1CCCCC1"
measurement_type = "growth"
reported_measurement = 36.4

[[record]]
compound = "N/C(=N\\N=C\\c1cc2ccccc2[nH]1)N/N=C/c1cc2ccccc2[nH]1"
measurement_type = "growth"
reported_measurement = 90.3


# compound CNC(=O)NCC1OC(n2cnc3c(NC(=O)Nc4ccccc4)ncnc32)C(O[Si](C)(C)C(C)(C)C)C1O[Si](C)(C)C(C)(C)C (centres undefined) ; its growth = 61

###

Test system: SF-295 CNS
Test: NCI-60 one-dose screen, 48 h
Details: 10 µM unless noted
Compounds without any hit were thinned out: in the full panel of roughly 83,000, 20% have a hit. The source made the active and inactive calls. How the source made its calls: active means growth percent below 10; inactive means the rest.
Please reply with one of these outcomes: true for active, false for inactive

Record excerpt, results attached:
[[record]]
compound = "CC(=O)OCC(=O)[C@@]1(O)CC[C@H]2[C@@H]3CC(=C(Br)Br)C4=CC(=O)CC[C@]4(C)[C@H]3C(=O)C[C@@]21C"
category = "false"

[[record]]
compound = "CC(Oc1ccc(C(=O)NS(=O)(=O)C(C)(C)C)cc1C(F)(F)F)c1ccc(Oc2ccccc2)cn1 (centres undefined)"
category = "false"

[[record]]
compound = "COc1ccc(CNCCN2C(=O)c3ccc4c5c(ccc(c35)C2=O)C(=O)N(CCNCc2ccc(OC)cc2)C4=O)cc1"
category = "true"


Now examine the next entry.
Each compound tested received a call. Report the one for "O=S(=O)(c1ccccc1)N1CCCc2ccccc21" . false

###

Tested on: CAKI-1 renal
Assay: NCI-60 one-dose screen, 48 h
Conditions: 10 µM unless noted
The panel holds about 83,000 compounds, 20% with a hit somewhere; the sample as a whole holds those more often. Active and inactive are the calls of the source. The calls were made as follows: active = growth percent below 10; inactive = the rest.
Please reply with one of these outcomes: t = active, f = inactive

Record excerpt, results attached:
[[record]]
compound = "O=C(NCCc1ccccn1)OCc1nc2nc(Cl)nc(N3CCOCC3)c2[nH]1"
experimental_system = "CAKI-1 renal"
category = "t"

[[record]]
compound = "CCc1c(Nc2ccc(C)cc2)nc(N)[nH]c1=O"
experimental_system = "CAKI-1 renal"
category = "f"

[[record]]
compound = "CCCN=C(N)c1ccc(NC(=O)c2ccc(C(=O)Nc3ccc(C(N)=NCCC)cc3)cc2)cc1"
experimental_system = "CAKI-1 renal"
category = "f"

[[record]]
compound = "[O-][n+]1ccccc1CCN(O)CCc1cccc[n+]1[O-]"
experimental_system = "CAKI-1 renal"
category = "f"

[[record]]
compound = "O=c1nc2n(nc1/C=C/c1ccco1)CC(c1ccc(Cl)cc1)=NN2"
experimental_system = "CAKI-1 renal"
category = "f"

[[record]]
compound = "C#CCNC(=O)[C@H](Cc1ccccc1)NC(=O)[C@]12CC[C@@H](C(=C)C)[C@@H]1[C@H]1CC[C@@H]3[C@@]4(C)Cc5c([nH]c6ccccc56)C(C)(C)[C@@H]4CC[C@@]3(C)[C@]1(C)CC2"
experimental_system = "CAKI-1 renal"
category = "f"

[[record]]
compound = "C(=C\\c1n(Cc2ccc3ccccc3c2)c(-c2ccccc2)c(-c2ccccc2)[n+]1Cc1ccc2ccccc2c1)/c1ccccc1"
experimental_system = "CAKI-1 renal"
category = "t"

[[record]]
compound = "Fc1ccc(C2CC(c3cccc(Nc4ccncc4)c3)=NN2c2ccccc2)cc1 (stereo not drawn)"
experimental_system = "CAKI-1 renal"
category = "f"

[[record]]
compound = "COc1ccncc1C#Cc1cncc(C(=O)Nc2ccc(CN3CCN(C)CC3)c(C(F)(F)F)c2)c1"
experimental_system = "CAKI-1 renal"
category = "f"

[[record]]
compound = "CC1(C)NCCC[C@]2(C)[C@H]3CC=C4[C@@H]5C[C@@](C)(CO)CC[C@]5(C)CC[C@@]4(C)[C@]3(C)CC[C@@H]12"
experimental_system = "CAKI-1 renal"
category = "f"


Each compound tested received a call. Report the one for "COc1ccc(CNC(=O)COc2ccc(/C=N/Nc3nc4ccccc4s3)cc2)cc1" . f

Each compound tested received a call. Report the one for "N/C(=N\N=C\c1cc2ccccc2[nH]1)N/N=C/c1cc2ccccc2[nH]1" . f

Each compound tested received a call. Report the one for "CS(=O)(=O)c1ccc(-c2cc(-c3nnc(SCC(=O)Nc4ccc(C(=O)/C=C/c5ccc(Cl)cc5)cc4)n3-c3ccccc3)c3ccccc3n2)cc1" . f

Each compound tested received a call. Report the one for "O=C(O)C(/C=C/c1ccco1)=N\Nc1nc(-c2ccc(Cl)cc2)cs1" . f
